method_summary: protein stability index of a GFP-peptide fusion (GPS, HEK-293T) (PSI 1-6); higher = more stable;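 also: 24-mer peptide tiles fused after GFP, lentivirally expressed, FACS-sorted into six equal bins by GFP/DsRed ratio, decoded by Illumina sequencing, PSI is the read-weighted mean bin number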
experimental_conditions: treatment: MLN4924 1 uM, 8 h; c terminus: a fixed tail appended
Decision: protein stability index compared against 3; not below it gives YES, below it gives NO.

Use these answered entries as a reference point.
sequence_input	cat
STEVQAHPYSTTFQESASTPETRA [TEKT4]	YES
FNEQTWEVSQQDPSHGEVGEHKDR [ZSCAN9]	YES
NFRDLVRDLEKQKEEVRAALEQRE [TRIM29]	YES
QYIAQFTSQFLSLQCLQALYVDSL [PRAME]	YES
TQEFLSACKSLQTRQNGIQTNKPA [STX5]	YES

Request: Hi team, for KDRASPADLRTNHTLNNLVEKLLR [TRIM35] , is the recorded protein stability index at or above 3?
Result: NO

Request: Is protein stability index at least 3? Consider DIRLTLMEEVLLLGLKDKEGYTSF [GOLPH3L]
Result: NO

Request: Identify whether the reported protein stability index of the following sequence is 3 or greater: RRGRMALCGQAAGAASLPSELIVH [FBXO33]
Result: NO

Request: Can FVEEIKKLATQHKQLISQTKKKQW [ZMYND11] be said to have protein stability index at or above 3?
Result: NO

Request: I'd appreciate it if you could say whether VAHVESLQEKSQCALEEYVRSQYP [NR2F2] has protein stability index at least equal to 3.
Result: YES

Request: Please indicate if the recorded protein stability index for IYGHVTLMRAQRNYMVQTEDQYIF [PTPRD] meets or exceeds 3.
Result: NO

Request: Could you verify whether the entry MASSPIQPRKGGADWLGLKDEDLD [FBF1] shows protein stability index of no less than 3?
Result: YES

====

Catalogue of protein stability index readings, one per entry.
method_summary: protein stability index of a GFP-peptide fusion (GPS, HEK-293T) (PSI 1-6); higher = more stable
experimental_conditions: treatment: DMSO; c terminus: a fixed tail appended
# respond with the number and nothing more

sequence_input	parameter	numeric_readout
NFRDLVRDLEKQKEEVRAALEQRE [TRIM29]	protein stability index	4.54
DRLWRPSKVLSLQDLCCRAVVSCT [RAB40B]	protein stability index	3.01
SGTVAAVLTLPFDVVKTQRQVALG [SLC25A39]	protein stability index	2.15
RSREARSRLLLLEQELKTVTYSLL [SMAD6]	protein stability index	2.61
TPLPETGYWRVRLWNGDKYAATTT [TRIM39]	protein stability index	2.47
KILRSMSRKVTTNKLLLSIIILLE [VTI1B]	protein stability index	2.48
TGIVNHTHSRMGSIMSTGIVQGSS [CARM1]	protein stability index	3.12
MTKTVQYQNELHKFLIWDTAGQER [RAB22A]	protein stability index	3.03
AARISNKGKFSTDTKGKPTSRTQV [ZC2HC1A]	protein stability index	3.91
MGSAADVRFSLGTTTHAPPGVHRR [PPFIA4]	protein stability index	4.26

Now, please, on to the next sequence.
Request: Please look up its protein stability index: DPRVQDFLQRCLESPFSRKLDLWS [NET1]
Result: 2.34

====

method_summary: protein stability index of a GFP-peptide fusion (GPS, HEK-293T) (PSI 1-6); higher = more stable
experimental_conditions: treatment: MLN4924 1 uM, 8 h; c terminus: a fixed tail appended
parameter: protein stability index
// return a plain number; no unit text

Field: example entries. Status: answers known.
sequence_input	protein stability index
PDPSHSPSDKVGRADAHLGSSSVA [TOR1AIP2]	4.68
QACMGGRCLHMDQLQDFNIPQAGG [ADAMTS4]	3.21
MKNKNNVTEFILLGLTQNPEGQKV [OR4A15]	2.99

Request: Could you share which protein stability index value was measured for LFQSPLFAKAGDTLSGTCLLIANK [CARM1] ?
Result: 2.81

Request: Record request: protein stability index value, item EDSIFGDPKKLLTQYFVQENYLEY [MAGEA6]
Result: 2.62

====

method_summary: protein stability index of a GFP-peptide fusion (GPS, HEK-293T) (PSI 1-6); higher = more stable
experimental_conditions: treatment: MLN4924 1 uM, 8 h; c terminus: a fixed tail appended
Entries annotated with measured protein stability index
Reply: number alone, nothing else.

// solved cases for protein stability index follow
sequence_input	protein stability index
LPTTKMAQTNPTPGSLGPWKITIY [CRYBA1]	2.19
YALRAYLGYQAVPSGSSGSLSTSS [CEBPB]	2.36
LKLWEIGKIIGGMWRDLTDEEKQE [SMARCE1]	3.44
FAHHSLFLHVRKATRAMGLLNTLS [TMEM175]	2.18
FRRGEKLRVISDEGGWWKAISLST [SLA]	2.13
LEAEVKDTTRVENLIKSENYGKIL [R3HDM1]	4.43
TWAPKNKGGEERKAEGGEEDSLGC [IRX6]	5.42
GQPSEPEHGPSPGQDTFCQGKADG [CHIT1]	5.63
VDFTFVENVVHGHILAAEQLSRDS [NSDHL]	2.26
CTRPVPRNGGKYCEGRRTRFRSCN [ADAMTS4]	4.12

Request: Give its protein stability index value. Item: FAKKLVDRTWTLCGTPEYLAPEVI [PRKX]
Result: 2.29

Request: What value of measured protein stability index is listed for MAPLQPSTSRAHKLPSRRQPGLLH [FAM189A2] ?
Result: 3.72

Request: Data request, read-out protein stability index, for SAQLQELVCHVMMGNLVMFRKDSV [INTS3]
Result: 2.83

Request: Which value of protein stability index has been reported for SEIGTSDQIVPEYQEDSDISSFFC [TRIB1] in the records?
Result: 4.55

Request: Which protein stability index is listed for EPERQVQHEESTEGEADHSGYAGE [UFD1] ?
Result: 5.7

====

method_summary: protein stability index of a GFP-peptide fusion (GPS, HEK-293T) (PSI 1-6); higher = more stable
experimental_conditions: treatment: DMSO; c terminus: a fixed tail appended
# binarize protein stability index: threshold 4 inclusive, high side yes, low side no

sequence_input	cat
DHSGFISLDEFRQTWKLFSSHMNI [PPEF2]	no
SGSLITAGRIDREELCAQSARCVV [PCDHGA10]	no
GAAAQGQTQTVAAQAQALAAQAAA [PI4K2A]	yes
NPYYDPLQWKSSHFERRDNMNDNF [CHGB]	no

Request: Can LWRSRVVPDREEGGSGGGGGGDED [SMAD6] be said to have protein stability index at or above 4?
Result: yes

====

method_summary: protein stability index of a GFP-peptide fusion (GPS, HEK-293T) (PSI 1-6); higher = more stable
experimental_conditions: treatment: MLN4924 1 uM, 8 h; c terminus: a fixed tail appended
parameter: protein stability index
Lab note: record the figure alone, no unit after it.

Recorded protein stability index, per entry:
sequence_input	protein stability index
TLMTMAIRIIDRALKEDFGFKHRL [PRIM1]	2.9
KRLREEEAARLFKQIVSAVAHCHQ [TRIB1]	2.4
RTYGEPESAGPSRAVRQSVTSFPD [EMD]	4.94

Request: Quick one: protein stability index for GNEEEESKIFTTLDPASLAWLTEE [DDIT3] ?
Result: 5.09

Request: Consider the sequence SWARPRPDEERPLRRPRPVQRTQS [RASAL3] and give its measured protein stability index.
Result: 4.57

Request: I would be grateful if you could share the reported protein stability index for SAPDTMKRYSMYLTPKGGVRTSYQ [TRIM29] .
Result: 3.05

Request: Which protein stability index reading was recorded for the sequence VLLIKDRTSKSRGFAFITFENPAD [RBMY1A1] ?
Result: 3.06

====

method_summary: protein stability index of a GFP-peptide fusion (GPS, HEK-293T) (PSI 1-6); higher = more stable
experimental_conditions: treatment: DMSO; c terminus: a fixed tail appended
Each item that follows carries a reported protein stability index.
No unit in the answer, only the number.

sequence_input	protein stability index
QSFCGENIMMPMGGMMPPGPGIPP [ZNF207]	3.15
DGSLILVSASRDKTLRVWDLKDDG [WSB1]	2.74
LMGPSRMSLFSLYMVQDQHECILP [M1AP]	2.58
PLGLEVDQFLEDVRLQERTSGGLL [NOP53]	4.42
DATPPVSPINMEDQERIKVERKRL [JUNB]	5.53

Request: // returns reported protein stability index for input ILINNGSRIKGWWVFHHYVSTFLS [TMEM120A]
Result: 2.17

====

method_summary: protein stability index of a GFP-peptide fusion (GPS, HEK-293T) (PSI 1-6); higher = more stable
experimental_conditions: treatment: DMSO; c terminus: a fixed tail appended
Given measured protein stability index, output T if it is greater than or equal to 3 and F if not.

sequence_input	cat
TRWYRAPELLVGDTQYGSSVDIWA [CDKL4]	F

For the next question, use this sequence.
Request: Is reported protein stability index greater than or equal to 3 here: TWLPSRAEWLLAVRSIQPEEKERI [AASDHPPT]
Result: T

Measured values drawn from the supplement of paper PMC10567573 for this set.
